The origin of these recorded values is PubChem BioAssay (NCI).

# reported growth inhibition; entries follow
Experiment: NCI Yeast Anticancer Drug Screen. Data for the rad18 strain (AID 177)
Settings: S. cerevisiae rad18 mutant growth inhibition; at 1.2 µM; stronger effect = higher value
About 79,000 compounds went through this panel and 15% of them were active in at least one assay; those are over-represented in the sample as a whole.
State just the number; it will be interpreted in %.

Here's what some known entries look like.
COMPOUND	growth inhibition [%]
COC(=O)c1ccccc1N=NNc1cccc(SC)c1	-10
COc1ccc2nc3cccc([N+](=O)[O-])c3c(NCCNCCO)c2c1	95
[N-]=[N+]=NC1(c2ccccc2)C(=O)Nc2ccccc2C1=O (configuration not stated)	-2
Cn1c(-c2ccc(/C=N\N3CCN(/N=C/c4ccc(-c5c[n+]6ccsc6n5C)cc4)CC3)cc2)c[n+]2ccsc12	19
O=C(O)CNC(c1ccccc1)(c1ccccc1)c1ccccc1	-5

Prompt: Sample CCCCN(CCC#N)c1ccc(/C=C/c2ccnc3ccccc23)cc1 — what was its growth inhibition?
Completion: -3

Prompt: Next record, please: C1=CCN([B-](c2ccccc2)[C+]2CCCCC2)C=C1
Completion: 0

Prompt: Next record, please: CCC(=O)C1=C(O)c2cc(OC)ccc2CC1C(=O)OC (configuration not stated)
Completion: -1

Prompt: Next record, please: COc1ccc2c(c1)CCCC(Br)C2=O (configuration not stated)
Completion: 32

Prompt: Next record, please: O=CC1(F)CC1(c1ccccc1)c1ccccc1 (configuration not stated)
Completion: -6

Prompt: Next record, please: O=[N+]([O-])c1ccc(C(c2c[nH]c3ccccc23)c2c[nH]c3ccccc23)cc1
Completion: 66

Prompt: Next record, please: CCN(CC)CCNc1ccc(C)c2sc3ccc(O)cc3c(=O)c12
Completion: 6
